- tested_on: T1, WT H3.1 26-35 peptide/HLA-A*02:01 complex on T2 cells (human)
- T1 construct: whole, on cells; T2 cells pulsed with the synthetic peptide; also called T2-WT H3.1; T2-WT 3.1
- assay_name: flow cytometry, scFv phage on T2 cells, anti-M13 + PE anti-mouse IgG
measured_parameter: Median MFI (PE-A) (MFI)
Provide only the numeric value, understood in MFI.

Solved entries (count: 4):
[[record]]
binder = "Phage clone 5 (scFv, fusion to the phage coat protein not described; also called anti-HMC scFv 5) scFv: DVVMTQSPLSLPVTLGQPASISCRSSQSLVYSNGNTYLNWFHQRPGQSPRRLIYEVSNRDSGVPDRFSGSGSGTDFTLKISRVEAEDVGVYYCMQGTHWPPTFGGGTKLEIKRSRGGGGSGGGGSGGGGSLEMAEVQLVQSGAEVKKPGESLKISCKGSGYSFTSYWIGWVRQMPGKGLEWMGIIYPGDSDTRYSPSFQGQVTISADKSISTAYLQWSSLKASDTAMYYCARGYDGWGQGTLVTVSS"
measured_parameter = "Median MFI (PE-A)"
unit_of_measurement = "MFI"
reported_value = 320

[[record]]
binder = "Phage clone 10 (scFv, fusion to the phage coat protein not described) scFv: EIVLTQSPLSLPVTLGQPASISCRSSQSLVYSNGNTYLSWFHQRPGQSPRRLIYKVSKRDSGVPDRFSGSGSGTDFTLKISRVEAEDVGVFYCMQGTYWPYTFGQGTKLEIKRSRGGGGSGGGGSGGGGSLEMAEVQLVQSGAEVKKPGESLKISCKGSGYSFTSYWIGWVRQMPGKGLEWMGIIYPGDSDTRYSPSFQGQVTISADKSISTAYLQWSSLKASDTAMYYCARGFDNWGQGTLVTVSS"
measured_parameter = "Median MFI (PE-A)"
unit_of_measurement = "MFI"
reported_value = 770

[[record]]
binder = "Phage clone 16 (scFv, fusion to the phage coat protein not described) scFv: DVVMTQSPLSLPVTLGQPASISCRSSQSLIYSNGNTYLTWFHQRPGQPPRRLIHKVSNRDSGVPDRFSGSGSGSDFTLKISRVEAEDVGIYYCMQGTHWPPTFGGGTKLEIKRSRGGGGSGGGGSGGGGSLEMAEVQLVQSGAEVKKPGESLKISCKGSGYSFTSYWIGWVRQMPGKGLEWMGIIYPGDSDTRYSPSFQGQVTISADKSISTAYLQWSSLKASDTAMYYCARGYDSWGQGTLVTVSS"
measured_parameter = "Median MFI (PE-A)"
unit_of_measurement = "MFI"
reported_value = 2320

[[record]]
binder = "Phage clone 13 (scFv, fusion to the phage coat protein not described) scFv: DVVMTQSPLSLPVTLGQPASISCRSSQSLIYSNGNTYLTWFHQRPGQPPRRLIHKVSNRDSGVPDRFSGSGSGSDFTLKISRVEAEDVGIYYCMQGTHWPPTFGGGTKLEIKRSRGGGGSGGGGSGGGGSLEMAEVQLVQSGAEVKKPGESLKISCKGSGYSFTSYWIGWVRQMPGKGLEWMGIIYPGDSDTRYSPSFQGQVTISADKSISTAYLQWSSLKASDTAMYYCARGYDVWGQGTLVTVSS"
measured_parameter = "Median MFI (PE-A)"
unit_of_measurement = "MFI"
reported_value = 761


For the next question, use this binder.
Kindly note the recorded Median MFI (PE-A) for Phage clone 31 (scFv, fusion to the phage coat protein not described) scFv: QAVLTQPSSLSASPGASASLTCTLRSGINVGTYRIYWYQQKPGSPPQYLLRYKSDSDKQQGSGVPSRFSGSKDASANAGILLISGLQSEDEADYYCMIWHSSAWVFGGGTKLTVLGSRGGGGSGGGGSGGGGSLEMAEVQLVESGGGLVQPGGSLRLSCAASGLTFDRYAMSWVRQAAGKGLERFSAITGDGYYTYYADSVKGRFTISRDNSKNTLYLQMNSLGAEDTAVYYCARLSGIGRSSYDGWGQGTLVTVSS , which is 529
